# System: Resistant Plutella xylostella
# assay_text: Field test on Plutella xylostella (cabbage, spray)
# Type: in vivo
# test_conditions: 250 ppm, after 14 days; larvae per 10 heads of cabbage; not sprayed = 100
readout_label: Corrected density index After 14 days

{"smiles_representation": "CCN(C(=O)C(C)(C)c1ccc(Cl)cc1)c1ccc(Cl)cc1", "endpoint_value": 0}
{"smiles_representation": "CC(C)(C(=O)Nc1ccc(Cl)cc1)c1ccc(Cl)cc1", "endpoint_value": 2}
{"smiles_representation": "CC(C)(C(=O)Nc1ccc(Br)cc1)c1ccc(Cl)cc1", "endpoint_value": 3}
{"smiles_representation": "CC(C)(C(=O)Nc1ccc(C(F)(F)F)cc1)c1ccc(Cl)cc1", "endpoint_value": 0}
{"smiles_representation": "CCN(C(=O)C(C)(C)c1ccc(Cl)cc1)c1ccc(Br)cc1", "endpoint_value": 0}

Source: patent US4582934A
